system tested: T1, EsCas13d, nuclease-dead (Eubacterium siraeum, UniProt B0MS50, R295A;H300A;R849A;H854A)
T1 sequence: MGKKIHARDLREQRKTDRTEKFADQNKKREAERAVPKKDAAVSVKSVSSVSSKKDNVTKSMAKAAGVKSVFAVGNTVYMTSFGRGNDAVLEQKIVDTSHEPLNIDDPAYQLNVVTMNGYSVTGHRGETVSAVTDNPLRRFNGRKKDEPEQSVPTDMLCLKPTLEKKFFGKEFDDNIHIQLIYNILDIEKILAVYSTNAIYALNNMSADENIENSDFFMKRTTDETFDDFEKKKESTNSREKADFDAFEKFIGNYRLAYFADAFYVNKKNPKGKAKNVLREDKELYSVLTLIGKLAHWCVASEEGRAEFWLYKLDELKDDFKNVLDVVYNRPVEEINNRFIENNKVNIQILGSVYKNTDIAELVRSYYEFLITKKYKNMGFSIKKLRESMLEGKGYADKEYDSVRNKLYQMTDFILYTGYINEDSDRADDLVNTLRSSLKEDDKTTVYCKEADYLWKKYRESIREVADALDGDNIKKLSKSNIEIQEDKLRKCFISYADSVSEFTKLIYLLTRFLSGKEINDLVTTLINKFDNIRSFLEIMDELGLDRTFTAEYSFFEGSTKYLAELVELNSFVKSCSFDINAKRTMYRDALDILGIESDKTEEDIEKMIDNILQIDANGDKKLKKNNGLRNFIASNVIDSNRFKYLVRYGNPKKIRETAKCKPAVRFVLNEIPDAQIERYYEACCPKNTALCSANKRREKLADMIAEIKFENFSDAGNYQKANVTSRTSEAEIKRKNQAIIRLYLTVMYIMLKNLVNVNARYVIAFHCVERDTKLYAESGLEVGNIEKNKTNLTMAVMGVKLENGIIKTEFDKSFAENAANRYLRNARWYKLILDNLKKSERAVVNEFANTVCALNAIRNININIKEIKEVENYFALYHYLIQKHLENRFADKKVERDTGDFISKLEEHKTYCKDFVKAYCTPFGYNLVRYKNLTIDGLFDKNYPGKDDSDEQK
test details: crRNA (strand 1, pre-loaded); Mg2+; 40 mM Tris-HCl pH 7.5, 150 mM NaCl, 6 mM MgCl2, 1 mM DTT, 0.1% Tween-20, 0.2 mg/ml BSA; 25 C; 10 min per concentration, then washed
assay setup: tags: His6-TwinStrep-SUMO cleaved; N-terminal SNAP kept (SNAP-Surface 488); label: 3' end held by stalled T7 RNA polymerase
Let's look at some binders and their measured Kd.
property: Kd (nM)

1. target 3 insC 3' of 21,insG 3' of 6 (mixed) RNA 1: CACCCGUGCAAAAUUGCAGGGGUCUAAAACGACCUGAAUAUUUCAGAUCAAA RNA 2: GGGAAUGGAUCCACAUCUACGAAUUCGUUUUCUGAUCUGAAAUAUUCGAGGUCUGCAGAUCGGAAGAGCACACGU    100
2. target 1 insU 3' of 17,insA 3' of 2 (mixed) RNA 1: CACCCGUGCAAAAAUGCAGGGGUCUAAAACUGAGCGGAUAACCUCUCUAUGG RNA 2: GGGAAUGGAUCCACAUCUACGAAUUCGUACCAUAGUAGAGGUUAUCCGCUCAACCGAGAUCGGAAGAGCACACGU    17.6
